# key: entry, value: melting point

Illustrative cases are given below, each with its answer.
compound="CCOC(=O)C1=C(C)NC(Nc2ccccc2I)=NC1c1ccc(F)cc1 (centres unmarked) [DHPM-KNV8]" measurement_type="melting point" result="229 to 230 °C"
compound="CCOC(=O)C1=C(C)NC(Nc2ccc(C(C)C)cc2)=NC1c1ccc(F)cc1 (centres unmarked) [DHPM-KNV4]" measurement_type="melting point" result="125 to 126 °C"
compound="CCOC(=O)C1=C(C)NC(Nc2ccc(Cl)cc2)=NC1c1ccc(F)cc1 (centres unmarked) [DHPM-KNV3]" measurement_type="melting point" result="188 to 189 °C"
compound="CCOC(=O)C1=C(C)NC(Nc2ccc(C(F)(F)F)cc2OC)=NC1c1ccc(F)cc1 (centres unmarked) [DHPM-KNV9]" measurement_type="melting point" result="213 to 214 °C"

Enquiry: Form field: reported melting point of CCOC(=O)C1=C(C)NC(Nc2ccc(Cl)c(C(F)(F)F)c2)=NC1c1ccc(F)cc1 (centres unmarked) [DHPM-KNV5]
Return: 176 to 177 °C

Enquiry: Form field: reported melting point of CCOC(=O)C1=C(C)NC(Nc2ccc(Br)cc2)=NC1c1ccc(F)cc1 (centres unmarked) [DHPM-KNV2]
Return: 120 to 121 °C

Enquiry: Form field: reported melting point of CCOC(=O)C1=C(C)NC(Nc2ccccc2)=NC1c1ccc(F)cc1 (centres unmarked) [DHPM-KNV1]
Return: 92 to 93 °C

Enquiry: Form field: reported melting point of CCOC(=O)C1=C(C)NC(Nc2ccc3ncsc3c2)=NC1c1ccc(F)cc1 (centres unmarked) [DHPM-KNV7]
Return: 175 to 176 °C
